- experiment summary: Titratable groups in 66% aqueous DMF (Tables XIV-XVI)
- Format: physicochemical
- applied conditions: Titratable groups
property name: pKa
Answers are plain numbers.

// known answers, use as guide
• CCC1OC(=O)CC(O)C(C)C(OC2OC(C)C(O)C(N(C)C)C2O)C(CCN2C3CCCCC3C3CCCCC32)CC(C)C(=O)C=CC(C)=CC1COC1OC(C)C(O)C(OC)C1OC (stereo not shown) [Compound D25] = 9.95
• CCC1OC(=O)CC(O)C(C)C(OC2OC(C)C(O)C(N(C)C)C2O)C(CCN2CCCCC2)CC(C)C(=O)C=CC(C)=CC1COC1OC(C)C(O)C(OC)C1OC (stereo not shown) [Compound D2, 20-DH-DO-20-(piperidin-1-yl)desmycosin] = 9.1
• CCC1OC(=O)CC(O)C(C)C(OC2OC(C)C(O)C(N(C)C)C2O)C(CCN2CCCCCCCCCCCC2)CC(C)C(=O)C=CC(C)=CC1COC1OC(C)C(O)C(OC)C1OC (stereo not shown) [Compound D10] = 9.5
• CCC1OC(=O)CC(O)C(C)C(OC2OC(C)C(O)C(N(C)C)C2O)C(CCN2CCCCCCC2)CC(C)C(=O)C=CC(C)=CC1COC1OC(C)C(O)C(O)C1OC (stereo not shown) [Compound L5] = 9.3
• CCC1OC(=O)CC(O)C(C)C(OC2OC(C)C(O)C(N(C)C)C2O)C(CCN2CC3CCC(CC3)C2)CC(C)C(=O)C=CC(C)=CC1COC1OC(C)C(O)C(OC)C1OC (stereo not shown) [Compound D14] = 9.2
• CCC1OC(=O)CC(O)C(C)C(OC2OC(C)C(O)C(N(C)C)C2O)C(CCN2CCCCCCC2)CC(C)C(=O)C=CC(C)=CC1COC1OC(C)C(O)C(OC)C1OC (stereo not shown) [Compound D6] = 9.4
• CCC1OC(=O)CC(O)C(C)C(OC2OC(C)C(O)C(N(C)C)C2O)C(CCN2CCCC(C(=O)N(CC)CC)C2)CC(C)C(=O)C=CC(C)=CC1COC1OC(C)C(O)C(OC)C1OC (stereo not shown) [Compound D15] = 8.6
• CCC1OC(=O)CC(O)C(C)C(OC2OC(C)C(O)C(N(C)C)C2O)C(CCN2CCCCCC2)CC(C)C(=O)C=CC(C)=CC1COC1OC(C)C(O)C(OC)C1OC (stereo not shown) [Compound D5] = 9.6

Provide each entry's pKa from the list below.
1. CCC1OC(=O)CC(O)C(C)C(OC2OC(C)C(O)C(N(C)C)C2O)C(CCN2CCCCCCCC2)CC(C)C(=O)C=CC(C)=CC1COC1OC(C)C(O)C(OC)C1OC (stereo not shown) [Compound D7]
2. CCC1OC(=O)CC(O)C(C)C(OC2OC(C)C(O)C(N(C)C)C2O)C(CCN2CCCC2)CC(C)C(=O)C=CC(C)=CC1COC1OC(C)C(O)C(OC)C1OC (stereo not shown) [Compound D1, 20-DH-DO-20-(pyrrolidin-1-yl)desmycosin]

[9, 9.5]

###

- Test system: Staphyloccus aureus X1.1
- experiment summary: MIC, standard agar-dilution assay (Table IX)
- Format: cell-based, Staphylococcus aureus
- applied conditions: Staphylococcus aureus, read-out: MIC
property name: MIC (µg/mL)
Answers are plain numbers, in µg/mL.

// known answers, use as guide
• CCC1OC(=O)CC(O)C(C)C(OC2OC(C)C(O)C(N(C)C)C2O)C(CCN2CCCCCCCC2)CC(C)C(=O)C=CC(C)=CC1COC1OC(C)C(O)C(OC)C1OC (centres unmarked) = 0.5
• CCC1OC(=O)CC(O)C(C)C(OC2OC(C)C(O)C(N(C)C)C2O)C(CCN2CCC(O)CC2)CC(C)C(=O)C=CC(C)=CC1COC1OC(C)C(O)C(OC)C1OC (centres unmarked) = 8

Provide each entry's MIC from the list below.
1. CCC1OC(=O)CC(O)C(C)C(OC2OC(C)C(O)C(N(C)C)C2O)C(CCN2CCCCCCC2)CC(C)C(=O)C=CC(C)=CC1COC1OC(C)C(O)C(O)C1OC (centres unmarked)
2. CCC1OC(=O)CC(O)C(C)C(OC2OC(C)C(OC3CC(C)(O)C(O)C(C)O3)C(N(C)C)C2O)C(CCN2CCCCCCC2)CC(C)C(=O)C=CC(C)=CC1COC1OC(C)C(O)C(O)C1OC (centres unmarked)

1: 1; 2: 4

What the record says about CCC1OC(=O)CC(O)C(C)C(OC2OC(C)C(O)C(N(C)C)C2O)C(CCN2CCCC3CCCCC32)CC(C)C(=O)C=CC(C)=CC1COC1OC(C)C(O)C(OC)C1OC (centres unmarked) : MIC is 0.5
